System: L1210
Assay summary: Cytostatic activity against mouse L1210 cells at <=500 uM after 2 days by Coulter counting analysis
Format: ADME, cell-based
Measurement conditions: l1210, 48 h
Quantity measured: Activity

Some solved entries appear below for comparison.
C#CC1(O)C=CN([C@H]2C[C@H](O)[C@@H](CO)O2)C(=O)C1(F)F (some centres not stated)
Not Active
C#CC1(O)C=CN([C@@H]2O[C@H](CO)[C@@H](O)[C@H]2O)C(=O)C1(F)F (some centres not stated)
Not Active
O=C1N([C@@H]2O[C@H](CO)[C@@H](O)[C@H]2O)C=CC(O)(c2ccccc2)C1(F)F (some centres not stated)
Not Active
CC1(O)C=CN([C@@H]2O[C@H](CO)[C@@H](O)[C@H]2O)C(=O)C1(F)F (some centres not stated)
Not Active
O=c1c(F)c(O)ccn1[C@@H]1O[C@H](CO)[C@@H](O)[C@H]1O
Not Active

Read the next record carefully.
Which value of Activity has been reported for O=c1c(F)c(O)ccn1[C@H]1C[C@H](O)[C@@H](CO)O1 in the records?
Not Active
